Value source: patent US20110135573A1

Listed below: pKi values for each entry.
test_system: mouse MMP-2 (R&D Systems #924-MP-010) (mouse) (UniProt P33434)
assay_text: Ki,app, enzyme inhibition assay (fluorogenic peptide substrate), medium-scale sFab
pKi here is simply -log10 of the concentration when that concentration is written in mol/L.

M0274-G08 (Fab, V domains shown) VH: EVQLLESGGGLVQPGGSLRLSCAASGFTFSVYDMWWVRQAPGKGLEWVSVIYPSGGATYYADSVKGRFTISRDNSKNTLYLQMNSLRAEDTAVYYCAKDRAYGDYVGWNGFDYWGQGTLVTVSS VL: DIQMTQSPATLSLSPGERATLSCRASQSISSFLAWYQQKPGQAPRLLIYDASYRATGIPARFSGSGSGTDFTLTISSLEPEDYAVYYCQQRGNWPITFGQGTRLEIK; 8.57

Query string: Could you tell me which pKi is on file for M0272-H08 (Fab, V domains shown) VH: EVQLLESGGGLVQPGGSLRLSCAASGFTFSAYDMWWVRQAPGKGLEWVSVIYPSGGTTFYADSVKGRFTISRDNSKNTLYLQMNSLRAEDTAVYYCAKDRAYGDYVGWNGFDYWGQGTLVTVSS VL: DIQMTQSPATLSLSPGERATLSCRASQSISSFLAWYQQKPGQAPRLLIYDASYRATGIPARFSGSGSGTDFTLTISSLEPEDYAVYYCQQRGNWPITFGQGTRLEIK ?
Result string: 7.34
